These measurements were taken from patent US20220396632A1.

Target: T1, Biotin Y46,48,51(SO3) PSGL-1(42-62) peptide (human, sulfotyrosine at Y46, Y48 and Y51; C-terminal Lys-biotin)
T1 construct: also called fully sulfated N-terminal PSGL-1 peptide
T1 peptide: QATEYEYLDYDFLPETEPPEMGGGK
Assay: capture ELISA; against 3 x sY peptide
The entries below are paired with their reported EC50/EC50 3x(SO3)Y.
// units = fold; emit number, no label

Example entries and their recorded answers appear below.
Binder	EC50/EC50 3x(SO3)Y / fold
20I15 (antibody, V domains shown, From mouse immunisation; only variable domains given; also called 20115) VH: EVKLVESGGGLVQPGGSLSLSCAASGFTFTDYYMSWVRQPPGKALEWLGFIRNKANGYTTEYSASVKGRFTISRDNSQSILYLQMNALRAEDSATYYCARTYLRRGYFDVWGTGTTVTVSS VL: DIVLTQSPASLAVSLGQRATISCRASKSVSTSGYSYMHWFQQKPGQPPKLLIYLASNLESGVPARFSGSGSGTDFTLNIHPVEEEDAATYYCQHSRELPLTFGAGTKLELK	1
03D07 (antibody, IgG4, V domains shown) VH: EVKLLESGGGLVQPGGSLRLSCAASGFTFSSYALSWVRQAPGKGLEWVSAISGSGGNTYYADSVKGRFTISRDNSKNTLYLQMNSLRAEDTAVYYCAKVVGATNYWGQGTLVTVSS VL: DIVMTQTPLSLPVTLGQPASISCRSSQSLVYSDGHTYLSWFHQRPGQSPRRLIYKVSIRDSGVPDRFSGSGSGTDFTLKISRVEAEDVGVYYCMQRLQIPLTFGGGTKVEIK	1

Let us move to another entry and its EC50/EC50 3x(SO3)Y.
stdin: Which measured EC50/EC50 3x(SO3)Y value corresponds to PSG3 (antibody, V domains shown, Control anti-PSGL-1 mAb; only variable domains given) VH: QVQLVQSGAEVKKPGSSVRVSCKASGGSFSSYGIHWVQQAPGQGLEWMGRIIPVLRIRNYAQKFHDRVTIDADTSTGTAYMELSSLTSDDTAVYYCAGSRQGVAPTGYWGQGTMVTVSS VL: QAVLTQPSSLSASPGASASLTCNLRSGIDVGTYRIYWYQQKPGSPPQYLLRYKSDSDKQQGSGVPSRFSGTKDASANAGILLISGLQSEDEADYYCMIWHSNGWVFGGGTKLTVL ?
stdout: 1
